Ref: patent US6686355B2

tgt: UniProtKB P09237
Sequence (P09237 95-267, species assumed): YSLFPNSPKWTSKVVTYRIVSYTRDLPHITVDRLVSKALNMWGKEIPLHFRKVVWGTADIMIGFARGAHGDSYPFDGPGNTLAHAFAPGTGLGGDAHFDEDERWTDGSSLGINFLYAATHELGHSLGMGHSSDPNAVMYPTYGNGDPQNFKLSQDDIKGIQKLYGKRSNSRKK
protocol_summary: Thiopeptolide hydrolysis assay, MMP-7FL
Type: biochemical
particulars: thiopeptolide substrate, HEPES pH 7.0, 22° C.
observation_type: IC50 (µM)

* CC1(C)[C@H](C(=O)NO)N(S(=O)(=O)c2ccc(-c3ccc(Br)cc3)cc2)CCS1(=O)=O [Example 4] | 0.031
* CC1(C)SCCN(S(=O)(=O)c2ccc(-c3ccc4ccccc4c3)cc2)[C@H]1C(=O)O [Example 36] | 31.7
* CC1(C)SCCN(S(=O)(=O)c2ccc(-c3ccc(CO)cc3)cc2)[C@H]1C(=O)O [Example 5] | 10
* CC1(C)SCCN(S(=O)(=O)c2ccc(-c3ccc(Br)cc3)cc2)[C@H]1C(=O)NO [Example 2] | 0.037
* CC1(C)SCCN(S(=O)(=O)c2ccc(-c3ccc(Oc4ccccc4)cc3)cc2)[C@H]1C(=O)O [Example 40] | 13
* CC1(C)SCCN(S(=O)(=O)c2ccc(-c3ccc(F)cc3F)cc2)[C@H]1C(=O)O [Example 39] | 25
* CC1(C)SCCN(S(=O)(=O)c2ccc(-c3ccc(-c4ccccc4)c(F)c3)cc2)[C@H]1C(=O)O [Example 53] | 1.85
* CC1(C)SCCN(S(=O)(=O)c2ccc(-c3ccc(-c4ccccc4)cc3)cc2)[C@H]1C(=O)O [Example 38] | 2.67

A: CC1(C)[C@H](C(=O)O)N(S(=O)(=O)c2ccc(-c3ccc(Br)cc3)cc2)CCS1(=O)=O [Example 3]
B: CC1(C)SCCN(S(=O)(=O)c2ccc(-c3ccc(F)c(F)c3)cc2)[C@H]1C(=O)O [Example 41]
Returns: the argument ( A or B ) having the larger IC50. Return value: the label identifying the chosen record.
B
(B: 92.5 µM, A: 8.8 µM)

a: CCOc1ccc(-c2ccc(S(=O)(=O)N3CCSC(C)(C)[C@@H]3C(=O)O)cc2)cc1 [Example 43]
b: CCc1ccc(-c2ccc(S(=O)(=O)N3CCSC(C)(C)[C@@H]3C(=O)O)cc2)cc1 [Example 47]
Hi, I'm comparing two records. Which one has the lower IC50, a or b ? Return value: the label identifying the chosen record.
b
(b: 9 µM, a: 70 µM)

###

tgt: MMP-14CD (catalytic domain of MMP-14) (Homo sapiens, UniProt P50281)
protocol_summary: Thiopeptolide hydrolysis assay, MMP-14CD
Type: biochemical
particulars: thiopeptolide substrate, HEPES pH 7.0, 22° C.
observation_type: IC50 (µM)

P: CC1(C)SCCN(S(=O)(=O)c2ccc(-c3ccc(-c4ccccc4)cc3)cc2)[C@H]1C(=O)O [Example 38]
Q: CC1(C)[C@H](C(=O)NO)N(S(=O)(=O)c2ccc(-c3ccc(Br)cc3)cc2)CCS1(=O)=O [Example 4]
R: CC1(C)SCCN(S(=O)(=O)c2ccc(-c3ccc(CO)cc3)cc2)[C@H]1C(=O)O [Example 5]
Put the items in order so that reported IC50 rises from first to last. Order the labels as requested and list them.
Q, P, R

###

tgt: MMP-3CD (catalytic domain of stromelysin-1) (Homo sapiens, UniProt P08254)
Sequence (P08254 100-272 limits assumed): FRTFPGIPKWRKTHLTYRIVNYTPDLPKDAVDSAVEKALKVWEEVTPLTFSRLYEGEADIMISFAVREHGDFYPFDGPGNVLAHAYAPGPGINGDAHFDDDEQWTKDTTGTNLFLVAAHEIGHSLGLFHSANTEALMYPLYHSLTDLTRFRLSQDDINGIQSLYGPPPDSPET
protocol_summary: Thiopeptolide hydrolysis assay, MMP-3CD
Format: biochemical
particulars: thiopeptolide substrate, MES pH 6.0
observation_type: IC50 (µM)

- CC1(C)SCCN(S(=O)(=O)c2ccc(-c3ccc(C(F)(F)F)cc3)cc2)[C@H]1C(=O)O [Example 57]: 0.0045
- COc1cccc(OC)c1-c1ccc(S(=O)(=O)N2CCSC(C)(C)[C@@H]2C(=O)O)cc1 [Example 60]: 9.95
- CCc1ccc(-c2ccc(S(=O)(=O)N3CCSC(C)(C)[C@@H]3C(=O)O)cc2)cc1 [Example 47]: 0.0074
- CC1(C)SCCN(S(=O)(=O)c2ccc(-c3cccc(C#N)c3)cc2)[C@H]1C(=O)O [Example 62]: 0.83
- CC1(C)SCCN(S(=O)(=O)c2ccc(-c3ccc(-c4ccccc4)cc3)cc2)[C@H]1C(=O)O [Example 38]: 0.00295

I: COc1ccc(-c2ccc(S(=O)(=O)N3CCSC(C)(C)[C@@H]3C(=O)O)cc2)cc1C=O [Example 48]
II: CC1(C)SCCN(S(=O)(=O)c2ccc(-c3ccc(Oc4ccccc4)cc3)cc2)[C@H]1C(=O)O [Example 40]
III: COc1cc(-c2ccc(S(=O)(=O)N3CCSC(C)(C)[C@@H]3C(=O)O)cc2)cc(OC)c1OC [Example 55]
IV: CC1(C)SCCN(S(=O)(=O)c2ccc(-c3ccc(F)cc3F)cc2)[C@H]1C(=O)O [Example 39]
V: CC1(C)SCCN(S(=O)(=O)c2ccc(-c3ccc(OC(F)(F)F)cc3)cc2)[C@H]1C(=O)O [Example 45]
Endpoint returns the given compounds ordered by ascending IC50. Order the labels as requested and list them.
V, II, IV, I, III
(V: 0.004 µM, II: 0.0094 µM, IV: 0.0285 µM, I: 0.775 µM, III: 8.9 µM)

A: CC1(C)SCCN(S(=O)(=O)c2ccc(-c3ccc4ccccc4c3)cc2)[C@H]1C(=O)O [Example 36]
B: CC(=O)c1cccc(-c2ccc(S(=O)(=O)N3CCSC(C)(C)[C@@H]3C(=O)O)cc2)c1 [Example 61]
Returns: the argument ( A or B ) having the larger IC50. Return value: the label identifying the chosen record.
B
(B: 0.763 µM, A: 0.0104 µM)

I: CC1(C)SCCN(S(=O)(=O)c2ccc(-c3ccc(Br)cc3)cc2)[C@H]1C(=O)NO [Example 2]
II: CC1(C)SCCN(S(=O)(=O)c2ccc(-c3ccc4c(c3)OCO4)cc2)[C@H]1C(=O)O [Example 33]
Hi, I'm comparing two records. Which one has the lower IC50, I or II ? Return value: the label identifying the chosen record.
I
(I: 0.002 µM, II: 0.0148 µM)

###

tgt: MMP-14CD (catalytic domain of MMP-14) (Homo sapiens, UniProt P50281)
protocol_summary: Thiopeptolide hydrolysis assay, MMP-14CD
Type: biochemical
particulars: thiopeptolide substrate, HEPES pH 7.0, 22° C.
observation_type: IC50 (µM)

Recorded results for 2 compounds are shown here.
- CC1(C)SCCN(S(=O)(=O)c2ccc(-c3ccc(-c4ccccc4)c(F)c3)cc2)[C@H]1C(=O)O: 0.145
- CC1(C)SCCN(S(=O)(=O)c2ccc(-c3ccc(OC(F)(F)F)cc3)cc2)[C@H]1C(=O)O: 0.128

a: CC1(C)SCCN(S(=O)(=O)c2ccc(-c3ccc(Br)cc3)cc2)[C@H]1C(=O)NO
b: CCOc1ccc(-c2ccc(S(=O)(=O)N3CCSC(C)(C)[C@@H]3C(=O)O)cc2)cc1
Hi, I'm comparing two records. Which one has the lower IC50, a or b ? Return value: the label identifying the chosen record.
a
(a: 0.001 µM, b: 0.16 µM)

###

tgt: MMP-9FL (full length Gelatinase B) (Homo sapiens, UniProt P14780)
Sequence (P14780 94-707, species assumed): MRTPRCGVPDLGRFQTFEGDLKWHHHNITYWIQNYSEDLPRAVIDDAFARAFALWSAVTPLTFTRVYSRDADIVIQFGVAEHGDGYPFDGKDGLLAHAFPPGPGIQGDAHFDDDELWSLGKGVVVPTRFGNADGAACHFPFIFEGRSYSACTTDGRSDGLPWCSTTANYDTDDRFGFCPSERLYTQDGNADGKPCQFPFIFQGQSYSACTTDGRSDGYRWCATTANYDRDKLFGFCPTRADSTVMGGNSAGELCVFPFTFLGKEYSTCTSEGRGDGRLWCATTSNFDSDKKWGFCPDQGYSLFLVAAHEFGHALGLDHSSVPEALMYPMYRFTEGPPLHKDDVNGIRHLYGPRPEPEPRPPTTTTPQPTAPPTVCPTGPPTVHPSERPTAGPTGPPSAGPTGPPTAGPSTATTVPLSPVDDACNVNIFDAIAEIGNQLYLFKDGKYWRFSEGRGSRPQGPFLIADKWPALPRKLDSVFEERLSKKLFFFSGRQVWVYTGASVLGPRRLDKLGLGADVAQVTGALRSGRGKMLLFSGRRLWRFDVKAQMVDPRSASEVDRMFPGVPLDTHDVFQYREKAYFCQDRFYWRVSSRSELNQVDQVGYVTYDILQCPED
protocol_summary: Thiopeptolide hydrolysis assay, MMP-9FL
Assay type: biochemical
particulars: thiopeptolide substrate, HEPES pH 7.0, 22° C.
observation_type: IC50 (µM)

Recorded results for 4 compounds are shown here.
• CC(C)c1ccc(-c2ccc(S(=O)(=O)N3CCSC(C)(C)[C@@H]3C(=O)O)cc2)cc1 = 0.37
• CC1(C)SCCN(S(=O)(=O)c2ccc(-c3cccc(C=O)c3)cc2)[C@H]1C(=O)O = 0.479
• CC1(C)SCCN(S(=O)(=O)c2ccc(-c3ccc(F)cc3F)cc2)[C@H]1C(=O)O = 2.78
• CC(C)(C)c1ccc(-c2ccc(S(=O)(=O)N3CCSC(C)(C)[C@@H]3C(=O)O)cc2)cc1 = 1.5

I: CCOc1ccc(-c2ccc(S(=O)(=O)N3CCSC(C)(C)[C@@H]3C(=O)O)cc2)cc1
II: CC1(C)SCCN(S(=O)(=O)c2ccc(-c3ccc4c(c3)OCO4)cc2)[C@H]1C(=O)O
Hi, I'm comparing two records. Which one has the lower IC50, I or II ? Return value: the label identifying the chosen record.
I
(I: 0.018 µM, II: 3.15 µM)

1: CC1(C)SCCN(S(=O)(=O)c2ccc(-c3ccc(Cl)cc3Cl)cc2)[C@H]1C(=O)O
2: CC1(C)SCCN(S(=O)(=O)c2ccc(-c3ccc(OC(F)(F)F)cc3)cc2)[C@H]1C(=O)O
Returns: the argument ( 1 or 2 ) having the larger IC50. Return value: the label identifying the chosen record.
1

I: CC1(C)SCCN(S(=O)(=O)c2ccc(-c3cccc4ccccc34)cc2)[C@H]1C(=O)O
II: Cc1ccc(-c2ccc(S(=O)(=O)N3CCSC(C)(C)[C@@H]3C(=O)O)cc2)s1
III: CC1(C)SCCN(S(=O)(=O)c2ccc(-c3cccc(Cl)c3)cc2)[C@H]1C(=O)O
IV: CN(C)c1ccc(-c2ccc(S(=O)(=O)N3CCSC(C)(C)[C@@H]3C(=O)O)cc2)cc1
Endpoint returns the given compounds ordered by ascending IC50. Order the labels as requested and list them.
IV, II, III, I
(IV: 0.17 µM, II: 0.52 µM, III: 10.3 µM, I: 22.8 µM)

a: CC1(C)SCCN(S(=O)(=O)c2ccc(-c3ccc(C(F)(F)F)cc3)cc2)[C@H]1C(=O)O
b: CC1(C)SCCN(S(=O)(=O)c2ccc(-c3ccc(F)cc3)cc2)[C@H]1C(=O)O
c: Cc1cccc(-c2ccc(S(=O)(=O)N3CCSC(C)(C)[C@@H]3C(=O)O)cc2)c1
Order the records so the highest IC50 appears first and the lowest last. Order the labels as requested and list them.
b, c, a
